meta.source: paper PMC12040169

test: in vitro; settings: human, hela cells, % viability
Measured quantity: viability at 28.5 h, 10 µM (%)
Answers are plain numbers, in %.

Answered examples (4):
{"columns": ["Compound", "Measured quantity", "Endpoint unit", "Observed value"],
 "data": [
  ["COc1ccc(/C(N)=N/OC(=O)C(C)Oc2ccc(C(C)(C)C)cc2)cc1OC (centres unmarked)", "viability at 28.5 h, 10 µM", "%", 94.9],
  ["O=C(c1sc2cc(Cl)ccc2c1Cl)N1CCN(Cc2ccc3c(c2)OCO3)CC1", "viability at 28.5 h, 10 µM", "%", 101],
  ["CSc1nnc2n3ncnc3c3c4c(sc3n12)CCCC4C (centres unmarked)", "viability at 28.5 h, 10 µM", "%", 97.3],
  ["COc1ccc(C(=O)NCCc2ccc(S(N)(=O)=O)cc2)cc1[N+](=O)[O-]", "viability at 28.5 h, 10 µM", "%", 99.8]
]}

Now examine the next entry.
Query :: If you can, please state the reported viability at 28.5 h, 10 µM value of "Cc1cc2ccccc2c(=O)n1CCO" .
Result :: 102

###

Please go through the items and note down their viability at 28.5 h, 10 µM.
assay: in vitro; conditions: human, hela cells, % viability
Form field: result (number plus unit)

{"columns": ["Molecule", "viability at 28.5 h, 10 µM"],
 "data": [
  ["COc1ccccc1-c1ncc(OCc2ccccn2)nc1N", "109%"],
  ["O=C(O)c1c(Br)c(Br)c(Br)c(Br)c1C(=O)NCCc1ccccc1", "90.7%"],
  ["CC(C)c1ccc(-c2cncc(NCCCO)n2)cc1", "106%"],
  ["COc1ccc(C(NC(=O)NNC(=O)Cc2ccc(Cl)cc2)c2ccccc2C)cn1 (stereo not drawn)", "96.1%"],
  ["Clc1ccc(COc2nccnc2OC2CCN(Cc3ccncc3)CC2)cc1Cl", "107%"]
]}

List viability at 28.5 h, 10 µM for every entry below, keeping the order given.
1. CN1CCN(S(=O)(=O)c2ccc(C(=O)O)cc2)CC1
2. CC(C)c1csc(C2CCN(C(=O)CCc3ccsc3)CC2)n1
3. Cc1cc(=O)n2c3c(cc(S(=O)(=O)NC4CC4)cc13)CC2
4. O=C(CCNS(=O)(=O)c1ccccc1)OCc1ccc([N+](=O)[O-])cc1

Result ::
["90.4%", "104%", "95.9%", "94.4%"]

###

experiment: in vitro; conditions: human, hela cells, % viability
Please go through the items and note down their viability at 28.5 h, 10 µM.
Give bare numbers, in %.

{"columns": ["Compound", "Endpoint unit", "viability at 28.5 h, 10 µM"],
 "data": [
  ["CCC(=O)N1C2CCC1c1cnc3cc(-c4ccco4)nn3c1C2 (centres unmarked)", "%", 92.7],
  ["O=C(Nc1ncc(Cc2ccc(F)cc2)s1)C1CCCCC1", "%", 105],
  ["COCCn1c(CO)nnc1[C@H]1C[C@@H](NC(=O)c2ccc(C)s2)C1", "%", 73.9],
  ["CCCc1cc(CNC(=O)C(C)n2ccnc2)on1 (centres unmarked)", "%", 88.3],
  ["Oc1ccc2cc(-c3ccc(OC(F)(F)F)cc3)cnc2n1", "%", 32.8],
  ["COc1c(Br)cc(Br)cc1/C=C1/SC(=N)NC1=O", "%", 94.4],
  ["CS(=O)(=O)CS(=O)(=O)C1=C(N2CCOCC2)C2CCN1CC2", "%", 87.5],
  ["Cc1ccnc(NC(=O)c2ccccc2)c1", "%", 90.6]
]}

List viability at 28.5 h, 10 µM for every entry below, keeping the order given.
1. c1ccc(Oc2ccccc2-c2cc(N3CCC(N4CCCCC4)CC3)ncn2)cc1
2. N#Cc1ccccc1N1CCN(c2cncc(-c3cccs3)n2)CC1

Result ::
1. 88.7
2. 104

List viability at 28.5 h, 10 µM for every entry below, keeping the order given.
1. Cc1ccc2c(C)c(C(=O)Nc3sc4c(c3C(=O)NCc3ccco3)CCC4)oc2c1
2. CCOc1ccc(CN(C)CC(=O)Nc2cc(C)no2)cc1
3. C/N=c1\cccccc1NC
4. Fc1ccc(-c2cncc(NCc3ccco3)n2)c(F)c1
5. O=C(NCCNCCNC(=O)C1(c2ccccc2)CCCC1)C1(c2ccccc2)CCCC1
6. COc1cc(-c2nccnc2N[C@@H](CO)C(C)C)cc(OC)c1OC
7. CN(c1ccc(C(O)(C(F)(F)F)C(F)(F)F)cc1)S(=O)(=O)c1cccs1
8. CC(Oc1cccc(F)c1)C(=O)N(Cc1cccnc1)CC1CCCO1 (centres unmarked)

Result ::
1: 99.2; 2: 79.8; 3: 110; 4: 91.9; 5: 110; 6: 111; 7: 107; 8: 108

List viability at 28.5 h, 10 µM for every entry below, keeping the order given.
1. COc1ccc2[nH]cc(C3CCN(Cc4cc(C)no4)CC3)c2c1
2. O=C(O)c1ccc(-c2ccc(/C=c3\sc4nc5ccccc5n4c3=O)o2)cc1

Result ::
[91.5, 99.3]

###

assay: in vitro; details: human, hela cells, % viability
Please go through the items and note down their viability at 28.5 h, 10 µM.
Give bare numbers, in %.

{"columns": ["Compound", "Endpoint unit", "viability at 28.5 h, 10 µM"],
 "data": [
  ["c1ccc(CSc2ccc3nnc(-c4ccncc4)n3n2)cc1 [CBK287625]", "%", 94.4],
  ["O=C(O)c1ccccc1C(=O)N1CCC2(CC1)NCCc1c2[nH]c2ccccc12 [CBK047235]", "%", 83.9]
]}

List viability at 28.5 h, 10 µM for every entry below, keeping the order given.
1. COc1cc(OC)cc(C(=O)Nc2cc(C)c3c(=O)oc4ccccc4c3n2)c1 [CBK291221]
2. COCCNC(=O)c1cnn2c(C)c(Cc3ccccc3C(F)(F)F)c(C)nc12 [CBK165210]
3. CCS(=O)(=O)N1CCc2cc(C(=O)CSc3nnc(-c4ccco4)o3)ccc21 [CBK297126]
4. CC1=CCC(C(=O)O)C(C(=O)Nc2ccccc2NC(=O)c2ccc(C(F)(F)F)cc2)C1 (stereo not drawn) [CBK265794]
5. Cc1ccc(N2C(=O)c3ccccc3C2=O)cc1 [CBK113243]

Result ::
1. 95.2
2. 95.7
3. 98.3
4. 99.9
5. 95.7

List viability at 28.5 h, 10 µM for every entry below, keeping the order given.
1. CCOC(=O)c1c(C#N)c(SCc2ccc(Cl)cc2)nc2c1CN(CC)CC2 [CBK021337]
2. CNC(=O)c1ccc(-c2cccc(COC)c2)nc1NCC1CC1 [CBK106322]

Result ::
90.9
90.7

###

Please go through the items and note down their viability at 28.5 h, 10 µM.
assay: in vitro; conditions: human, hela cells, % viability

List viability at 28.5 h, 10 µM for every entry below, keeping the order given.
1. OCC1CCCN1c1cncc(-c2cccnc2)n1 (centres unmarked) [CBK065439]
2. O=C(NCCSCc1ccco1)C1CCC1 [CBK057516]
3. Cc1ccc(S(=O)(=O)Nc2nccnc2-c2ccc(Cc3nnn[nH]3)cc2)cc1 [CBK073841]
4. Cc1nc(C)c(C(=O)NCc2cccnc2N(C)C2CCCCC2)s1 [CBK306885]
5. Cc1cc(C(F)F)n2nc(C(=O)Nc3cccc(S(=O)(=O)N4CCOCC4)c3)nc2n1 [CBK266198]
6. O=C(COc1ccc(Br)cc1C(=O)O)NCCc1ccccc1 [CBK286796]
7. Cc1c(NC(=O)CSCc2ccc(Cl)cc2Cl)cccc1C(=O)O [CBK131704]
8. Cc1ccc(S(=O)(=O)NC(C)(C)CSc2nnc(N)s2)cc1 [CBK266350]

Result ::
["100%", "119%", "96.9%", "95%", "101%", "95.3%", "104%", "97.1%"]

List viability at 28.5 h, 10 µM for every entry below, keeping the order given.
1. O=C(O)/C=C/c1ccc(CNS(=O)(=O)c2ccccc2)o1 [CBK286549]
2. CCOCCCNC(=O)c1cnn2c(C)c(Cc3cccc(OC)c3)c(C)nc12 [CBK162056]
3. Cc1cc(C(C)(C)C)cc(S(=O)(=O)Nc2ccc(C(=O)O)c(O)c2)c1C [CBK299820]
4. CSc1ccc(CN(C)CCN(C)C)cc1 [CBK019349]
5. CCNC(=S)N1CCN(CCNC=C2C(=O)CC(c3ccco3)CC2=O)CC1 (centres unmarked) [CBK264742]
6. Nc1ncnc2c1nnn2[C@@H]1O[C@H](CO)[C@H](O)C1O (some centres unmarked) [CBK201228]
7. CC(=O)Nc1ccc(NC(=O)CC2(CC(=O)O)CCCC2)cc1 [CBK296931]

Result ::
1. 86%
2. 113%
3. 88.3%
4. 97.9%
5. 91.7%
6. 30%
7. 97.3%

List viability at 28.5 h, 10 µM for every entry below, keeping the order given.
1. CC(=O)C1=C(O)C(=O)N(CCCC(=O)O)C1c1cccc([N+](=O)[O-])c1 (centres unmarked) [CBK263801]
2. C[C@H](Nc1nc(-c2ccoc2)cnc1N)c1ccccc1 [CBK063707]
3. CC1=NN(c2cccc(S(=O)(=O)O)c2C(=O)Nc2ccccc2)C(=O)C1 [CBK017343]
4. CCN(CC(=O)NCc1cccs1)C(=O)CN1CCCC1c1ccc(C)cc1 (centres unmarked) [CBK297761]

Result ::
103%
105%
98.4%
104%

Query :: If you can, please state the reported viability at 28.5 h, 10 µM value of O=C(Cn1cccnc1=O)NCc1cccnc1OCC(F)(F)F [CBK305949] .
Result :: 109%
